The following compounds are shown together with reported inhibition values.
- targetOfAssay: Neutrophil elastase (Homo sapiens)
- testMethodNotes: Percent inhibition in elastase-induced lung haemorrhage, when the compound is dosed orally at 30 mg/kg 30 min before challenge by HLE (Human leukocyte elastase)
- Assay type: functional, organism-based
- Set-up: dose 30 mg/kg
Expressed in %, but write only the number.

compound: CCC1(CC)C(=O)N(C(=O)NCc2ccc(C(N)=O)cc2)C1Oc1ccc(C(=O)O)cc1 (centres undefined)
measuredNumber: 10
//
compound: CCC1(CC)C(=O)N(C(=O)NCCCCOc2ccccc2)C1Oc1ccc(C(=O)O)cc1 (centres undefined)
measuredNumber: 30
//
compound: CCC1(CC)C(=O)N(C(=O)NCc2cccs2)C1Oc1ccc(C(=O)O)cc1 (centres undefined)
measuredNumber: 52
//
compound: CCC1(CC)C(=O)N(C(=O)NCCCCc2ccccc2)C1Oc1ccc(C(=O)O)cc1 (centres undefined)
measuredNumber: 35
//
compound: CCC1(CC)C(=O)N(C(=O)NCc2ccc3ccccc3c2)C1Oc1ccc(C(=O)O)cc1 (centres undefined)
measuredNumber: 37

query: Hi! What's the reported inhibition for CCC1(CC)C(=O)N(C(=O)NCc2ccccc2)C1Oc1ccc(CC(=O)O)cc1 (centres undefined) on Neutrophil elastase (Homo sapiens)?
result: 71

query: One more compound: CCC1(CC)C(=O)N(C(=O)NCc2ccc(OC)c(C)c2)C1Oc1ccc(C(=O)O)cc1 (centres undefined)
result: 64

query: One more compound: CCC1(CC)C(=O)N(C(=O)NCc2ccccc2C)C1Oc1ccc(C(=O)O)cc1 (centres undefined)
result: 33

query: One more compound: CCC1(CC)C(=O)N(C(=O)NCc2ccc(N(C)C)cc2)C1Oc1ccc(C(=O)O)cc1 (centres undefined)
result: 25

---

- targetOfAssay: Neutrophil elastase (Homo sapiens)
- testMethodNotes: elastase inhibitory activity, evaluated for second order rate constant (time-dependent inhibition)
measurementKind: second order rate constant kobs/[I] (M⁻¹ s⁻¹)
Expressed in M⁻¹ s⁻¹, but write only the number.

Would you please look over these solved cases?
compound: CCC1(CC)C(=O)N(C(=O)NCCC(=O)c2ccccc2)C1Oc1ccc(C(=O)O)cc1 (centres undefined)
measureUnit: M⁻¹ s⁻¹
second order rate constant kobs/[I]: 2100
//
compound: CCC1(CC)C(=O)N(C(=O)NCCCC(O)c2ccccc2)C1Oc1ccc(C(=O)O)cc1 (centres undefined)
measureUnit: M⁻¹ s⁻¹
second order rate constant kobs/[I]: 5100
//
compound: CCC1(CC)C(=O)N(C(=O)NCc2ccc(F)cc2)C1Oc1ccc(C(=O)O)cc1 (centres undefined)
measureUnit: M⁻¹ s⁻¹
second order rate constant kobs/[I]: 2300

query: Report second order rate constant kobs/[I] for CCC1(CC)C(=O)N(C(=O)NCc2ccc(Cl)cc2)C1Oc1ccc(C(=O)O)cc1 (centres undefined) please.
result: 3400

query: One more compound: CCc1ccc(CNC(=O)N2C(=O)C(CC)(CC)C2Oc2ccc(C(=O)O)cc2)cc1 (centres undefined)
result: 8200

query: One more compound: CCC1(CC)C(=O)N(C(=O)NCc2ccc(C(C)=O)cc2)C1Oc1ccc(C(=O)O)cc1 (centres undefined)
result: 5900

query: One more compound: CCC1(CC)C(=O)N(C(=O)NCCCCc2ccccc2)C1Oc1ccc(C(=O)O)cc1 (centres undefined)
result: 9200

query: One more compound: CCC1(CC)C(=O)N(C(=O)NCc2ccc(N)cc2)C1Oc1ccc(C(=O)O)cc1 (centres undefined)
result: 1800
